PROTOCOL: Human HepG2 cell viability assay in 384 well format
Assay type: toxicity, cell-based
Parameters: dose 125 nL, time 70.5 hour; concentration not given beside the values
CONDITION LABEL: HepG2 cells, read-out: Inhibition
ATTRIBUTE MEASURED: cytotoxicity at 70.5 h (%)
Numbers only, in %.

Solved cases below.
>>> numeric_result("Cc1ccc(C(CNCc2cccnc2)N2CCOCC2)s1 (stereo not given)")
-10.2
>>> numeric_result("Cc1ccccc1C(C#N)NC(=O)CCCOc1cccnc1 (stereo not given)")
-0.163
>>> numeric_result("Cc1cc(CN2C[C@@H]3COC[C@]3(COCC(=O)N(C)C)C2)no1")
-4.13
>>> numeric_result("CN(C)CCN1CCO[C@H]2CCN(C(=O)c3cccs3)CC[C@@H]21")
32.1

Turning now to a further molecule:
Fill in: cytotoxicity at 70.5 h of Cc1cc(C(=O)N2CCCC2c2nc(O)cc(C(C)C)n2)on1 (stereo not given) is ___
-5.06

----------
PROTOCOL: Human HepG2 cell viability assay in 384 well format
Assay type: toxicity, cell-based
Parameters: dose 125 nL, time 70.5 hour; concentration not given beside the values
CONDITION LABEL: HepG2 cells, read-out: Inhibition
I'd be grateful if you could share measured cytotoxicity at 70.5 h for these entries.
Numbers only, in %.

Solved cases below.
>>> numeric_result("Cc1c[nH]c(CN(C)C(=O)[C@@]23CNC[C@@H]2CN(c2ncccn2)C3)n1")
-14
>>> numeric_result("O=C(c1cccc(F)c1F)N1CCn2c(nnc2C(F)(F)F)C1")
-4.83
>>> numeric_result("C[C@@H]1CN(C(=O)C2(Cn3cccn3)CC2)CC[C@@]1(O)C1CC1")
26.3

List the reported cytotoxicity at 70.5 h of each molecule below.
1. Cc1cccc2c1nc1n2[C@@H](CNC(=O)c2cncnc2)COC1
2. CC(C)n1c(C2CCCN(Cc3ccnn3C)C2)nc2ccccc21 (stereo not drawn)
3. Cc1nn(CC(=O)N2CCN(c3cnccn3)CC2)c(C)c1Cl

-3.15
-9.99
-9.18

List the reported cytotoxicity at 70.5 h of each molecule below.
1. Cc1n[nH]c(C)c1NC(=O)CN1CCCC1c1c(C)nn(C)c1C (stereo not drawn)
2. CC(OCC(F)(F)F)C(=O)N1CCCC1 (stereo not drawn)

1.54
-61.3

----------
I'd be grateful if you could share measured cytotoxicity at 70.5 h for these entries.
PROTOCOL: Human HepG2 cell viability assay in 384 well format
Type: toxicity, cell-based
Set-up: dose 125 nL, time 70.5 hour; concentration not given beside the values
CONDITION LABEL: HepG2 cells, read-out: Inhibition
One number for each entry, in %.

>>> numeric_result("Cc1ccc(CCCC(=O)N2CCC(=O)Nc3cccnc32)s1")
12.9
>>> numeric_result("CCC1=N[C@@]2(CC[C@@H]3CN(CC4CC4)C[C@@H]32)C(=O)N1CC")
-14

List the reported cytotoxicity at 70.5 h of each compound below.
1. O=S(=O)(NC1CCCCC12OCCO2)c1cc(F)cc(F)c1 (configuration not stated)
2. CSCC(=O)N(C)Cc1ccccc1
3. COc1ccc(CCCC(=O)NCc2c(C)noc2C)cc1F
4. CN(C)c1ccc(C(O)CNC(=O)NCCCc2ccccc2)cc1 (configuration not stated)
5. CSc1cc(CNC(=O)CCOc2ccccc2C)ccn1
6. O=C(O)c1ccc(CCNC(=O)C2(c3ccccc3)CC2)cc1
7. Cc1noc(C(C)N2CCN(CCC(=O)N3CCOCC3)CC2)n1 (configuration not stated)
8. Nc1nccnc1C(=O)NC1CCCN(Cc2c(F)cccc2F)C1 (configuration not stated)

-3.19
-6.59
20
-9.74
-7.07
12.5
-5.76
-16.3

List the reported cytotoxicity at 70.5 h of each compound below.
1. CCC(NC(=O)Cn1ccc(=O)n(C)c1=O)c1ccc(OC)cc1 (configuration not stated)
2. O=C(CCNC(=O)c1ccccc1)Nc1ccncc1

1. -9.09
2. -18
